Ref: patent US20260042834A1

Examples of binders with documented mCrhr1 Luciferase Reporter Assay IC50 follow.
test_system: T1, corticotropin-releasing hormone (CRH) peptide (human and mouse (same sequence), not fully specified)
T1 peptide: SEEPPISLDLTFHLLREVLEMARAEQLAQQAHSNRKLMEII
assay_comment: cell-based or functional assay

binder	mCrhr1 Luciferase Reporter Assay IC50
PR302334-10 (antibody, human IgG1, kappa, V domains shown) VH: EVQLVESGGGLVQPGGSLRLSCAASGFTFSTYAMSWVRQAPGKGLEWVASIRSGGTTYYPDSVKGRFTISRDNSKNTLYLQMNSLRAEDTAVYYCTRGIDWGQGTTVTVSS VL: DIVMTQSPDSLAVSLGERATINCKASQSVNNDVAWYQQKPGQPPRLLIYYASNRYTGVPDRFSGSGSGTDFTLTISSLQAEDLAVYFCQQDYSSWTFGGGTKVEIKR	2.66 nM
PR302334 (antibody, human IgG1, kappa, V domains shown) VH: EVKLVESGGGLVKPGGSLKLSCAASGFTFSTYAMSWVRQTPEKRLEWVASIRSGGTTYYPDSVKGRFTISRDNARNILYLQMSSLRSEDTAIYYCTRGIDWGQGTLVTVSA VL: NIVMTQTPKFLLVSAGDRITITCKASQSVNNDVAWYQQKPGQSPKLLIYYASNRYTGVPDRFTGSGYGTDFTFTISTVQAEDLAVYFCQQDYSSWTFGGGTNLEIKR	0.672 nM
PR302334-27 (antibody, human IgG1, kappa, V domains shown) VH: EVQLVESGGGLVQPGGSLRLSCAASGFTFSTYAMSWVRQAPGKGLEWVASIRSGGTTYYPDSVKGRFTISRDNSKNSLYLQMNSLRAEDTAVYYCTRGIDWGQGTTVTVSS VL: DIQMTQSSLSASVSLGDRVTITCKASQSVNNDVAWYQQKPGKAPRLLIYYASNRYTGVPSRFSGSGSGTDFTFTISSLQPEDLATYFCQQDYSSWTFGGGTKVEIKR	2.27 nM
PR302334-26 (antibody, human IgG1, kappa, V domains shown) VH: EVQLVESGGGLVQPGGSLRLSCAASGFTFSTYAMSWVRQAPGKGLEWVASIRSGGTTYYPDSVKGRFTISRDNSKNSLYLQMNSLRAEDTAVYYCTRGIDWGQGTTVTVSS VL: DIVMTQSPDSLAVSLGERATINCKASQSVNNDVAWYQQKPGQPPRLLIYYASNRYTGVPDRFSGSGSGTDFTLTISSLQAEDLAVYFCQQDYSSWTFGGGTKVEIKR	1.34 nM
